- assayed system: TOP2B (Homo sapiens)
- Sequence (Q02880 whole entry): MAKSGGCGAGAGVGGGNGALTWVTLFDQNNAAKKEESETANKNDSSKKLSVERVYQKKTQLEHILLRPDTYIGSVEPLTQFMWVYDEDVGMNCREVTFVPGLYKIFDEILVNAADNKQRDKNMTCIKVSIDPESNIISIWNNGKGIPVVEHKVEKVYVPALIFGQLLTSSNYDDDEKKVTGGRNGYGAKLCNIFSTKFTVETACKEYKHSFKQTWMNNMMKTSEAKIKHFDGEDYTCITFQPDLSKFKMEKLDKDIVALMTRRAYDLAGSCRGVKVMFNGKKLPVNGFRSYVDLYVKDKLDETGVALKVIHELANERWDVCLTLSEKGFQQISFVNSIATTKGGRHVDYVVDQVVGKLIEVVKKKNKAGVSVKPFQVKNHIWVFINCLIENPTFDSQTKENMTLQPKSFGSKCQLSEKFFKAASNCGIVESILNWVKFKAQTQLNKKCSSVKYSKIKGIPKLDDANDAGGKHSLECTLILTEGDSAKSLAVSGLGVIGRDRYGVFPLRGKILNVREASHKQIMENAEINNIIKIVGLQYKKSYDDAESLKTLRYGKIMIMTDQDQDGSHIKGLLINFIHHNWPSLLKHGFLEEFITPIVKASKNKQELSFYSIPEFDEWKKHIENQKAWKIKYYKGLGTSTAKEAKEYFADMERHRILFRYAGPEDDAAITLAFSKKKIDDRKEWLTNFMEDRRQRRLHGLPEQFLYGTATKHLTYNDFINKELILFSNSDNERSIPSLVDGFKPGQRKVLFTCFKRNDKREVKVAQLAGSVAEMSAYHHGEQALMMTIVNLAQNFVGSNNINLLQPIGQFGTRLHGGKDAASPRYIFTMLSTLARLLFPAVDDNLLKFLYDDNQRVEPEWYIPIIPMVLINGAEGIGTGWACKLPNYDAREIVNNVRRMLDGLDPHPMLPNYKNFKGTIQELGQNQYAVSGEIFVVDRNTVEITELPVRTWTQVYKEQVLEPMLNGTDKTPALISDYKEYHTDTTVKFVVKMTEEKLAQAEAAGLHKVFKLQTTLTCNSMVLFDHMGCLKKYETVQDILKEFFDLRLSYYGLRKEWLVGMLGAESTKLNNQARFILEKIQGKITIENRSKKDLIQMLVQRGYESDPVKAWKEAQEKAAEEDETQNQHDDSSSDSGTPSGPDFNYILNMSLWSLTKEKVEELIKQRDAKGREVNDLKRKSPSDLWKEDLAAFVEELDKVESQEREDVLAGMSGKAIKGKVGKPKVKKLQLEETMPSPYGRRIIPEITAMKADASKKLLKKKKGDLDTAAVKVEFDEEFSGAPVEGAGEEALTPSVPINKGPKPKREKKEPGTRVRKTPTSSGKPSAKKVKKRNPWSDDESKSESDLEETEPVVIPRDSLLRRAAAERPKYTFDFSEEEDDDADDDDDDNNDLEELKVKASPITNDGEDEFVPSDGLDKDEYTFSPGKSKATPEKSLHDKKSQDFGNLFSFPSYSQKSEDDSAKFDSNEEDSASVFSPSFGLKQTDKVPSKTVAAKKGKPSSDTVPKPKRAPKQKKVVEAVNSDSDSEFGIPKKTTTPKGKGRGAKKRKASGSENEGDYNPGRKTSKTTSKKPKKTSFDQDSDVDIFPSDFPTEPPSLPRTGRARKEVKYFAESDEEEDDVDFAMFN
- assay comment: DNA relaxation assay (supercoiled pHOT-1 plasmid)
- Format: biochemical
- Parameters: full-length human TOP2A and TOP2B protein (TopoGEN and Inspiralis respectively); purchased Inspiralis HTB205
- condition parameters: densitometry of SC bands; read-out: IC50, inhibition of TOP2B plasmid DNA relaxation
property: IC50

QUERY: Name the reported IC50 value associated with the compound O=C(Nc1ccc(Nc2ccccc2)cc1)c1ccc[nH]c1=S
RESULT: ~8.9 µM

====

- assayed system: TOP2A (Homo sapiens)
- Sequence (P11388 whole entry): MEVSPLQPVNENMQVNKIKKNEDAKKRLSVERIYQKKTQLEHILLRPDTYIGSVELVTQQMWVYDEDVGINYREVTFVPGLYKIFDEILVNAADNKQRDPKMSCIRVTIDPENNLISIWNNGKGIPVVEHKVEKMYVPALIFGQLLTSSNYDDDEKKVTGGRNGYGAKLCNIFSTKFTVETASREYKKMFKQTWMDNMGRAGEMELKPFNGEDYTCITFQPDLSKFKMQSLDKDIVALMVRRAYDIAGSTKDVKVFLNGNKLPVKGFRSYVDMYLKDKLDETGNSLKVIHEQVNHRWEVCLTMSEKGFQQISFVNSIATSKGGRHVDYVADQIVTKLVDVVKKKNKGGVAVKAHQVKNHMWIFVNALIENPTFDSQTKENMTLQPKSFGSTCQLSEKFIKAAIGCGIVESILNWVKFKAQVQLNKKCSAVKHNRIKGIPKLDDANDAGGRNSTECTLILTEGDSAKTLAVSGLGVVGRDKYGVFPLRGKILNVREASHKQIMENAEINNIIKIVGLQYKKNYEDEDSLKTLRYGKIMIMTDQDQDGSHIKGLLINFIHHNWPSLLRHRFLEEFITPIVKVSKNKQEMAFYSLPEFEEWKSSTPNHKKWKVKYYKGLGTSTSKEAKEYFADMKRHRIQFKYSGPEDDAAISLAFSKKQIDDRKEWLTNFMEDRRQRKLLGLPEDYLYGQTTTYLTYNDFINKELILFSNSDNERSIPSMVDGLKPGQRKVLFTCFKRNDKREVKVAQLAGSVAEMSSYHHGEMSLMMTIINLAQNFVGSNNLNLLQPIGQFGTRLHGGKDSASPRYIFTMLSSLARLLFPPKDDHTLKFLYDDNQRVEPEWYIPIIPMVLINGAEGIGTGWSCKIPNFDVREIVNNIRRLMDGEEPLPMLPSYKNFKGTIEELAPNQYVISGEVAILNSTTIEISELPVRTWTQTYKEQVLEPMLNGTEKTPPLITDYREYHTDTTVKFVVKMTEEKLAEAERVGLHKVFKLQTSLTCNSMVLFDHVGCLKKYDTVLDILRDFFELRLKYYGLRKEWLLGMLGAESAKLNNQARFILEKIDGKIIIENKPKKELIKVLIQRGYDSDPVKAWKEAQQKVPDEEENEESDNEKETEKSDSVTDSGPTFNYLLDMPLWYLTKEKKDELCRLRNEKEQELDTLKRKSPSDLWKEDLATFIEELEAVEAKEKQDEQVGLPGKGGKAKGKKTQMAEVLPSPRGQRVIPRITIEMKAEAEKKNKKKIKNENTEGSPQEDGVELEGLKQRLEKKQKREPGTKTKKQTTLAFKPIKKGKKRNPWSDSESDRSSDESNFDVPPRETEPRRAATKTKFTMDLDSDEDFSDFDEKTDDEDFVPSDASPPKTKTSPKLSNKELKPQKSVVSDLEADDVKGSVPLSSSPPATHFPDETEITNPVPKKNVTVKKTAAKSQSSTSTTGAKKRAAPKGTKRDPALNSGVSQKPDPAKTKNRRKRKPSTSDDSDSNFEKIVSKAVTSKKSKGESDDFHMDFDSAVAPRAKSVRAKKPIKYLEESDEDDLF
- assay comment: DNA relaxation assay (supercoiled pHOT-1 plasmid)
- Assay type: biochemical
- Set-up: full-length human TOP2A and TOP2B protein (TopoGEN and Inspiralis respectively); purchased TopoGEN TG1001 (human TOP2 assay kit)
- condition parameters: densitometry of SC bands; read-out: IC50, inhibition of TOP2A plasmid DNA relaxation
property: IC50

QUERY: Name the reported IC50 value associated with the compound O=C(Nc1ccc(Nc2ccccc2)cc1)c1ccc[nH]c1=S [T60]
RESULT: ~4.7 µM

====

- assayed system: UniProt P11388
- assay comment: Relaxation and K-DNA decatenation assays of candidates and T60 derivatives (SAR)
- Format: biochemical
- Parameters: full-length human TOP2A and TOP2B protein (TopoGEN and Inspiralis respectively); purchased TopoGEN TG1001 (human TOP2 assay kit)
- condition parameters: compared with T60
property: Activity on TOP2

>>> recorded_measurement("O=C(Nc1ccc(Nc2ccccc2O)cc1)c1ccc[nH]c1=S [T620]")
"increased activity"
>>> recorded_measurement("O=C(Nc1ccc(Nc2ccc(O)cc2)cc1)c1ccc[nH]c1=S [T625]")
"increased activity"
>>> recorded_measurement("O=C(Nc1ccc(Nc2ccccc2)cc1)c1ccnnc1S [T635]")
"nearly inactive"
>>> recorded_measurement("O=C(Nc1ccc(Nc2ccccc2)cc1)c1c[nH]cnc1=S [T636]")
"nearly inactive"
